- Test system: MOLT-4
- assay.details: NCI tumour cell line growth inhibition, 48 h
Activity calls are given as the source filed them. Rule as the data show it: active = GI50 up to about 1.1 µM and inactive = higher.
measured.endpoint: GI50

compound | reported.value
O=C1CCN2C(=N1)Sc1ccccc12 | > 100 µM (inactive)
C=C1OC(c2ccccc2NC)=NC12CCCCC2 | > 100 µM (inactive)
CC[C@@H](/C=C\CCC(=O)C[C@H](O)CCC=C(C)C)O[Si](C(C)C)(C(C)C)C(C)C | > 100 µM (inactive)
COC(=O)C1=C(O)C(C(=O)OC)[C@]2(O)[C@H](C(=O)OC)[C@H]1C[C@@H](c1ccc(OC)c(OC)c1)[C@H]2C(=O)OC (stereo not given in full) | 17.5 µM (inactive)
COCCOC(=O)NCn1cc(-c2ccccc2)nn1 | > 100 µM (inactive)
